- conditionLabel: 25 °C
parameterMeasured: solubility (mM)
Your answer is read as mM, so omit the unit and give the number.

State the recorded solubility for this entry: CCOc1nc(F)cc2nc(S(=O)(=O)Nc3c(Cl)cccc3C(=O)OC)nn12
0.0372

Request: O=C(O)c1cccc(C(=O)O)n1
29.9

Now this one: ClC(Cl)=C(Cl)C(Cl)=C(Cl)Cl
0.0123

Okay, and Oc1ccc(N=Nc2ccc(N=Nc3ccccc3)c3ccccc23)cc1 ?
0.000979

Similarly, Clc1ccc2ccccc2c1 ?
0.0719

What would you report for ClC1=C(Cl)[C@]2(Cl)[C@@H]3[C@@H]4C[C@@H]([C@H]5O[C@@H]45)[C@@H]3[C@@]1(Cl)C2(Cl)Cl (single isomer, unassigned) ?
0.00058

Could you do the same for CN , please?
34800

Another molecule to look at: Oc1cc(Cl)c(Cl)cc1Cl
6.08

What about ClC/C=C/CCl ?
5.27

And then O=[N+]([O-])c1c2ccccc2cc2ccccc12 , what is it?
0.000511

Follow-up entry: C=C(C)C(=O)OCCCC
5.63

Could you do the same for c1ccoc1 , please?
147

Here is the next molecule: FCCl
151

Now the molecule O=[N+]([O-])c1cccc2ccccc12
0.053

Same question, Cc1ccc2cc3c(ccc4ccccc43)c3c2c1CC3 this time
1.08e-05

Also Oc1nc(O)nc(O)n1 ?
15.5

Now try CCCCCCCCCl .
0.0329

Now consider CCCN(CCC)c1c([N+](=O)[O-])cc(C(C)C)cc1[N+](=O)[O-] and answer again.
0.000339

// repeat for Cc1cccc(Oc2ccc([N+](=O)[O-])cc2)c1 and report
0.0218

Also, CCCCOP(=O)(OCCCC)Oc1ccccc1 please.
0.335

Another molecule to look at: Clc1c(Cl)c(Cl)c2c(oc3c(Cl)c(Cl)c(Cl)c(Cl)c32)c1Cl
2.61e-09

Same question for C=C(C)C1CC=C(C)CC1 (stereo not given) please.
0.0777

Please do the same for CN(C)c1ccc(N=Nc2ccc(N)cc2)cc1 as well.
0.0255

Try CNC(=O)O/N=C/C(C)(C)S(C)=O (stereo not given) next.
136

// next record OCCCc1ccccc1
41.7

Now the molecule COC
7660

CCN(CC)c1ccccc1 ?
0.938

Next: Cc1c2ccccc2c(C)c2c1ccc1ccccc12
0.000152

How about this molecule: C=CCCCCCCCC
0.00406

Also CN(C)c1ccc(N=Nc2ccccc2)cc1 , if possible.
0.00102

Hello, the source for this data is the OPERA property sets (Mansouri et al. 2018), in case you need it.
